- tgt: CDK2/cyclin A (Homo sapiens)
- Construct: made in house; host or cells: CDK2: insect cells (baculovirus); cyclin A: E. coli
- measurement protocol: Inhibition of CDK2/cyclin A retinoblastoma kinase activity (Ki; % inhibition)
- Assay type: biochemical
- experimental context: at 0.03 μM
quantity: CDK2 % Inhibition at 0.03 μM (%)

[[record]]
compound = "Nc1nc(Nc2ccc(C(=O)NC3CCS(=O)(=O)C3)cc2)sc1C(=O)c1c(F)cccc1F (stereo not shown)"
unit_info = "%"
observed = 14

[[record]]
compound = "COCCN(CCOC)C(=O)c1ccc(Nc2nc(N)c(C(=O)c3c(F)cccc3F)s2)cc1"
unit_info = "%"
observed = "−4"

[[record]]
compound = "Nc1nc(Nc2ccc(C(=O)Nc3ccc4c(c3)S(=O)(=O)C=C4)cc2)sc1C(=O)c1c(F)cccc1F"
unit_info = "%"
observed = 27

[[record]]
compound = "Nc1nc(Nc2ccc(C(=O)Nc3ccc4nc[nH]c4c3)cc2)sc1C(=O)c1c(F)cccc1F"
unit_info = "%"
observed = 13

[[record]]
compound = "Cc1ccc(NC(=O)c2ccc(Nc3nc(N)c(C(=O)c4c(F)cccc4F)s3)cc2)cc1Cl"
unit_info = "%"
observed = "−1"

[[record]]
compound = "Nc1nc(Nc2ccc(C(=O)N3CCC(O)C3)cc2)sc1C(=O)c1c(F)cccc1F (stereo not shown)"
unit_info = "%"
observed = 22


[A] Nc1nc(Nc2ccc(C(=O)NCc3cccnc3)cc2)sc1C(=O)c1c(F)cccc1F
[B] CN1CCN(C(=O)c2ccc(Nc3nc(N)c(C(=O)c4c(F)cccc4F)s3)cc2)CC1
Determine, for A and B , which has the greater value of CDK2 % Inhibition at 0.03 μM. Could you answer with the label of the item you picked?
A

###

- tgt: human CDK4/cyclin D3 (Homo sapiens)
- Construct: made in house; host or cells: insect cells co-infected with baculovirus vectors
- Sequence (P11802 whole entry): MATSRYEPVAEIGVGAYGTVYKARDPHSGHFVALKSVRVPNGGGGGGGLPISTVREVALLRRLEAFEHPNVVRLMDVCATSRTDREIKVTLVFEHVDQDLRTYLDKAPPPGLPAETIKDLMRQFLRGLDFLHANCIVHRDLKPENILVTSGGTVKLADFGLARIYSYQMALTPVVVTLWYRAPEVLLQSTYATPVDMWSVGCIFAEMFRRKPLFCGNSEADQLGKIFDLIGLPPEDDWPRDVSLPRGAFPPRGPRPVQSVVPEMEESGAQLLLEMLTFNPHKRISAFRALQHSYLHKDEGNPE
- Sequence (P30281 1-264 partner limits assumed): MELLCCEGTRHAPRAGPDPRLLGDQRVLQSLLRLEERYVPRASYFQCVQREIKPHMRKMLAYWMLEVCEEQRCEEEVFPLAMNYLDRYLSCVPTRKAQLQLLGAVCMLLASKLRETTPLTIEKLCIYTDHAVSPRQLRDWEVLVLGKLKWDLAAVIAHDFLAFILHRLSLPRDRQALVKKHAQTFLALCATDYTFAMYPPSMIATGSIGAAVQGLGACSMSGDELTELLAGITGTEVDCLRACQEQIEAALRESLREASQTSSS
- measurement protocol: Inhibition of CDK4/cyclin D retinoblastoma kinase activity (Ki; % inhibition)
- Assay type: biochemical
- experimental context: 0.03 μM compound
quantity: CDK4 % Inhibition at 0.03 μM (%)

Please review the following examples before continuing.
[[record]]
molecule = "Nc1nc(Nc2ccc(C(=O)NC3CCOC3=O)cc2)sc1C(=O)c1c(F)cccc1F (stereo not shown)"
tgt = "human CDK4/cyclin D3 (Homo sapiens)"
quantity = "CDK4 % Inhibition at 0.03 μM"
unit_info = "%"
observed = 22

[[record]]
molecule = "CCOC(=O)C1CCN(C(=O)c2ccc(Nc3nc(N)c(C(=O)c4c(F)cccc4F)s3)cc2)CC1"
tgt = "human CDK4/cyclin D3 (Homo sapiens)"
quantity = "CDK4 % Inhibition at 0.03 μM"
unit_info = "%"
observed = 20

[[record]]
molecule = "CCN(Cc1ccccc1)C(=O)c1ccc(Nc2nc(N)c(C(=O)c3c(F)cccc3F)s2)cc1"
tgt = "human CDK4/cyclin D3 (Homo sapiens)"
quantity = "CDK4 % Inhibition at 0.03 μM"
unit_info = "%"
observed = 16


[P] C=CCN(C(=O)c1ccc(Nc2nc(N)c(C(=O)c3c(F)cccc3F)s2)cc1)C1CCCCC1
[Q] Cc1ccc(CNC(=O)c2ccc(Nc3nc(N)c(C(=O)c4c(F)cccc4F)s3)cc2)cc1C
Pick one: P or Q . Which one has the lower reported CDK4 % Inhibition at 0.03 μM? Write down the label of the entry you select.
P
(P: 5%, Q: 27%)

[1] Nc1nc(Nc2ccc(C(=O)N3CCC(CO)CC3)cc2)sc1C(=O)c1c(F)cccc1F
[2] Nc1nc(Nc2ccc(C(=O)Nc3cccc(-c4nnco4)c3)cc2)sc1C(=O)c1c(F)cccc1F
[3] Cc1ccc(CNC(=O)c2ccc(Nc3nc(N)c(C(=O)c4c(F)cccc4F)s3)cc2)cc1Cl
[4] Nc1nc(Nc2ccc(C(=O)NCc3ccccc3F)cc2)sc1C(=O)c1c(F)cccc1F
Please list the entries, largest CDK4 % Inhibition at 0.03 μM first. Please, when replying, give the labels in the order that was requested.
4, 3, 2, 1
(4: 34%, 3: 19%, 2: 8%, 1: 2%)

###

- tgt: CDK2/cyclin A (Homo sapiens)
- Construct: made in house; host or cells: CDK2: insect cells (baculovirus); cyclin A: E. coli
- measurement protocol: Inhibition of CDK2/cyclin A retinoblastoma kinase activity (Ki; % inhibition)
- Format: biochemical
- experimental context: 0.03 μM compound
quantity: CDK2 % Inhibition at 0.03 μM (%)

Solved entries (count: 5):
[[record]]
smiles_text = "Nc1nc(Nc2ccc(C(=O)NCc3ccc(C(F)(F)F)cc3)cc2)sc1C(=O)c1c(F)cccc1F"
observed = 30

[[record]]
smiles_text = "CCCN(CCC)C(=O)c1ccc(Nc2nc(N)c(C(=O)c3c(F)cccc3F)s2)cc1"
observed = 8

[[record]]
smiles_text = "Nc1nc(Nc2ccc(C(=O)Nc3ccc(Nc4ccccc4)cc3)cc2)sc1C(=O)c1c(F)cccc1F"
observed = "−6"

[[record]]
smiles_text = "Nc1nc(Nc2ccc(C(=O)NCCCCO)cc2)sc1C(=O)c1c(F)cccc1F"
observed = "−12"

[[record]]
smiles_text = "C=CCN(CC=C)C(=O)c1ccc(Nc2nc(N)c(C(=O)c3c(F)cccc3F)s2)cc1"
observed = "−20"


[1] Nc1nc(Nc2ccc(C(=O)Nc3cccc(F)c3)cc2)sc1C(=O)c1c(F)cccc1F
[2] CCOc1ccccc1CCNC(=O)c1ccc(Nc2nc(N)c(C(=O)c3c(F)cccc3F)s2)cc1
Field: entry with larger CDK2 % Inhibition at 0.03 μM (options 1 / 2 ). Refer to your chosen entry by its label in the reply.
1
(1: −6%, 2: −19%)

###

- tgt: human CDK1 (cdc2)/cyclin B (Homo sapiens, UniProt P06493)
- Sequence (P06493 whole entry): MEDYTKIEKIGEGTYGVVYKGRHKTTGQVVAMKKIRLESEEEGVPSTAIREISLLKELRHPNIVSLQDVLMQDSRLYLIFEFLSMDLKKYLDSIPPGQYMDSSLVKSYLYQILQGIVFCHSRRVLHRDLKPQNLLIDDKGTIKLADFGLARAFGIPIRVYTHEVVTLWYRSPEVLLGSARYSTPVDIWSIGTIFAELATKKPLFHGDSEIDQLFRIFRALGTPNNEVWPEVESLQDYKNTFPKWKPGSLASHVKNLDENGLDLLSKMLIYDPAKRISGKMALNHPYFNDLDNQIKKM
- Sequence (P14635 whole entry partner): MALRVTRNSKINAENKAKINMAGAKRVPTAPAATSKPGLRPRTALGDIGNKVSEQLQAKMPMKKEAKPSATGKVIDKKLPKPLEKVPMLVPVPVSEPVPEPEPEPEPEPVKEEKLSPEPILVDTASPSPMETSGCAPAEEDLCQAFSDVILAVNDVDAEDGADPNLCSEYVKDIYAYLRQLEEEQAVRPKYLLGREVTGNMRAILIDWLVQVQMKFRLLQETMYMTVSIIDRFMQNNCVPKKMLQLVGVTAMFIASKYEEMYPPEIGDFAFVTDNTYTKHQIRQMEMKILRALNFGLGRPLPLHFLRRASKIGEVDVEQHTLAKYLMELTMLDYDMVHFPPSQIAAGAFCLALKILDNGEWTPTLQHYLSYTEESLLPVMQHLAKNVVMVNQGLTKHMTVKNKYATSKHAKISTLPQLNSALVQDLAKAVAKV
- measurement protocol: Inhibition of CDK1 (cdc2)/cyclin B histone H1 kinase activity
- experimental context: histone H1 substrate
Counter-ions that a name gives are not always drawn.
quantity: Ki (nM)

Examples with answers:
[[record]]
compound = "CN1CCC[C@H]1CNC(=O)c1ccc(Nc2nc(N)c(C(=O)c3c(F)cccc3F)s2)cc1 [Example A31, Dihydrochloride]"
tgt = "human CDK1 (cdc2)/cyclin B (Homo sapiens, UniProt P06493)"
unit_info = "nM"
observed = 82

[[record]]
compound = "C[C@H](CNC(=O)c1ccc(Nc2nc(N)c(C(=O)c3c(F)cccc3F)s2)cc1)N(C)C"
tgt = "human CDK1 (cdc2)/cyclin B (Homo sapiens, UniProt P06493)"
unit_info = "nM"
observed = 72

[[record]]
compound = "Nc1nc(Nc2ccc(C(=O)Nc3ccc(N4CCOCC4)cc3)cc2)sc1C(=O)c1c(F)cccc1F"
tgt = "human CDK1 (cdc2)/cyclin B (Homo sapiens, UniProt P06493)"
unit_info = "nM"
observed = 120


[I] CC(CN(C)C)NC(=O)c1ccc(Nc2nc(N)c(C(=O)c3c(F)cccc3F)s2)cc1 (stereo not drawn) [Example A20, Hydrochloride Salt]
[II] Nc1nc(Nc2ccc(C(=O)NCCN3CCCCC3)cc2)sc1C(=O)c1c(F)cccc1F
[III] Nc1nc(Nc2ccc(C(=O)NCCc3ccc(O)cc3)cc2)sc1C(=O)c1c(F)cccc1F
List these items ordered by Ki, big to small. Form field (ranking): labels in requested order.
I, II, III

###

- tgt: human CDK4/cyclin D3 (Homo sapiens)
- Construct: made in house; host or cells: insect cells co-infected with baculovirus vectors
- measurement protocol: Inhibition of CDK4/cyclin D retinoblastoma kinase activity (Ki; % inhibition)
- Assay type: biochemical
- experimental context: at 0.03 μM
quantity: CDK4 % Inhibition at 0.03 μM (%)

[1] CCOC(=O)/C=C/c1ccc(NC(=O)c2ccc(Nc3nc(N)c(C(=O)c4c(F)cccc4F)s3)cc2)cc1 [Example G114]
[2] C[C@H](NC(=O)c1ccc(Nc2nc(N)c(C(=O)c3c(F)cccc3F)s2)cc1)c1ccccc1 [Example G167]
Just curious, which one has the larger CDK4 % Inhibition at 0.03 μM reading, 1 or 2 ? Indicate which entry you chose by stating its label.
2
(2: 29%, 1: 11%)

[I] Nc1nc(Nc2ccc(C(=O)Nc3ccccc3CO)cc2)sc1C(=O)c1c(F)cccc1F [Example G53]
[II] COc1ccc(NC(=O)c2ccc(Nc3nc(N)c(C(=O)c4c(F)cccc4F)s3)cc2)cc1O [Example G14]
[III] NC(=O)C1CCN(C(=O)c2ccc(Nc3nc(N)c(C(=O)c4c(F)cccc4F)s3)cc2)CC1 [Example G43]
[IV] Nc1nc(Nc2ccc(C(=O)NC(CO)c3ccccc3)cc2)sc1C(=O)c1c(F)cccc1F (centres unmarked) [Example G155]
Task field, ranking: reported CDK4 % Inhibition at 0.03 μM, descending order. I'd appreciate it if you listed the labels in the requested order.
IV, II, III, I

[A] COCCNC(=O)c1ccc(Nc2nc(N)c(C(=O)c3c(F)cccc3F)s2)cc1 [Example G164]
[B] CC(C)CCCC(C)NC(=O)c1ccc(Nc2nc(N)c(C(=O)c3c(F)cccc3F)s2)cc1 (centres unmarked) [Example G141]
Just curious, which one has the larger CDK4 % Inhibition at 0.03 μM reading, A or B ? Identify your pick by its label.
A

[A] NC(=O)c1cccc(NC(=O)c2ccc(Nc3nc(N)c(C(=O)c4c(F)cccc4F)s3)cc2)c1 [Example G6]
[B] Nc1nc(Nc2ccc(C(=O)N3CCC(Cc4ccccc4)CC3)cc2)sc1C(=O)c1c(F)cccc1F [Example G194]
// pick larger CDK4 % Inhibition at 0.03 μM from pair: A vs B Please reply using the label of the selected record.
B
(B: 19%, A: 10%)
